- System: EZH2
- protocol-summary: 3' UTR reporter interaction score (median-centred robust z-score of log2 firefly/Renilla activity); higher = less repression of the 3' UTR reporter
- assay-context: HEK293T; 48 h
Here the recorded 3' UTR reporter interaction score is given for each entry.
Form: value (number only, do not type unit).

[
  {
    "residue-string": "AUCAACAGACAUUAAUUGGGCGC",
    "3' UTR reporter interaction score": 1.19
  }
]

-- ask Lab note: need 3' UTR reporter interaction score with EZH2 for entry `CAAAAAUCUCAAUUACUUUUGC` , please look it up.
-- reply 0.0697

-- ask Lab request: please report 3' UTR reporter interaction score under test system EZH2 for `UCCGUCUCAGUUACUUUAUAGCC`
-- reply 0.571

-- ask Return 3' UTR reporter interaction score measured with EZH2 given this sequence: `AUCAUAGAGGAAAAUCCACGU`
-- reply 0.733

-- ask API: value(readout= 3' UTR reporter interaction score, system= EZH2, query= `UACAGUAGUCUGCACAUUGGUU` )
-- reply -0.827

====

- System: ZEB2
- protocol-summary: 3' UTR reporter interaction score (median-centred robust z-score of log2 firefly/Renilla activity); higher = less repression of the 3' UTR reporter
- assay-context: HEK293T; 48 h
assay-endpoint: 3' UTR reporter interaction score
// return just the number, without any unit appended

[
  {
    "residue-string": "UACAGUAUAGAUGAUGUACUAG",
    "target-of-assay": "ZEB2",
    "3' UTR reporter interaction score": 0.857
  },
  {
    "residue-string": "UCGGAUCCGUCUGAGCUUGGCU",
    "target-of-assay": "ZEB2",
    "3' UTR reporter interaction score": 0.123
  },
  {
    "residue-string": "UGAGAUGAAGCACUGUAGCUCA",
    "target-of-assay": "ZEB2",
    "3' UTR reporter interaction score": 0.313
  },
  {
    "residue-string": "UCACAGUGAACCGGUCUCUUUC",
    "target-of-assay": "ZEB2",
    "3' UTR reporter interaction score": -2.39
  }
]

-- ask Reported 3' UTR reporter interaction score for `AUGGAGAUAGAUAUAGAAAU` : what is it?
-- reply 1.49

-- ask Bench note: what 3' UTR reporter interaction score did `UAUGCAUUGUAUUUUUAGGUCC` show?
-- reply -1.13

-- ask Param item = `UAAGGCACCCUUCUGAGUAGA` ; retrieve measured 3' UTR reporter interaction score.
-- reply 0.807

-- ask # input sequence: `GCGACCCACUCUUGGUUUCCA` ; wanted: its 3' UTR reporter interaction score
-- reply -0.694

-- ask Which 3' UTR reporter interaction score is listed for `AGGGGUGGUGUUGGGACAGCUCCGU` ?
-- reply 0.212

-- ask Which 3' UTR reporter interaction score value belongs to `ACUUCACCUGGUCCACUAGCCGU` ?
-- reply 0.694

-- ask I have this sequence here, `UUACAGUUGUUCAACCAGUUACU` , and I need its recorded 3' UTR reporter interaction score.
-- reply -1.76

====

- Test system: ZEB2
- protocol-summary: 3' UTR reporter interaction score (median-centred robust z-score of log2 firefly/Renilla activity); higher = less repression of the 3' UTR reporter
- assay-context: HEK293T; 48 h
Threshold rule: 3' UTR reporter interaction score greater than or equal to -0.4 is 1.0; below that, 0.0.

[
  {
    "residue-string": "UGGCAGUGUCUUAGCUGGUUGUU",
    "assigned-class": 1.0
  },
  {
    "residue-string": "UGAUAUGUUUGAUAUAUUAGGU",
    "assigned-class": 0.0
  },
  {
    "residue-string": "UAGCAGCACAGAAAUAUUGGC",
    "assigned-class": 1.0
  },
  {
    "residue-string": "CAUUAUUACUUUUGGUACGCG",
    "assigned-class": 1.0
  },
  {
    "residue-string": "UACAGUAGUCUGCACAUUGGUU",
    "assigned-class": 1.0
  },
  {
    "residue-string": "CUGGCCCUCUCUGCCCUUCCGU",
    "assigned-class": 1.0
  },
  {
    "residue-string": "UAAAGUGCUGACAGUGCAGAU",
    "assigned-class": 1.0
  },
  {
    "residue-string": "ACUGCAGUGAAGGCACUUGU",
    "assigned-class": 0.0
  }
]

Now examine the next entry.
-- ask Threshold query (3' UTR reporter interaction score >= -0.4) on `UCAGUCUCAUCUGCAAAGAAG`
-- reply 1.0

====

- Test system: FBXW7
- protocol-summary: 3' UTR reporter interaction score (median-centred robust z-score of log2 firefly/Renilla activity); higher = less repression of the 3' UTR reporter
- assay-context: HEK293T; 48 h
Outcome: Criterion met for 3' UTR reporter interaction score of at least -0.1; Criterion not met for anything lower.

[
  {
    "residue-string": "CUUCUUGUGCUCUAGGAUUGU",
    "assigned-class": "Criterion not met"
  }
]

-- ask Given `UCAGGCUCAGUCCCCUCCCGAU` , state whether its 3' UTR reporter interaction score is at least -0.1.
-- reply Criterion met

-- ask Reported 3' UTR reporter interaction score reaches at least -0.1 for `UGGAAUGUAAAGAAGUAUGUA` ?
-- reply Criterion not met

-- ask Does 3' UTR reporter interaction score meet or surpass -0.1 for `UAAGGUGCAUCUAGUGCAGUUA` ?
-- reply Criterion not met

-- ask Entry `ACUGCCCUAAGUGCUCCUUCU` : is its 3' UTR reporter interaction score no less than -0.1?
-- reply Criterion met

-- ask Check this sequence for 3' UTR reporter interaction score at or above -0.1: `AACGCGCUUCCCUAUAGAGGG`
-- reply Criterion met

====

- System: MYT1L
- protocol-summary: 3' UTR reporter interaction score (median-centred robust z-score of log2 firefly/Renilla activity); higher = less repression of the 3' UTR reporter
- assay-context: HEK293T; 48 h
Entries and their measured 3' UTR reporter interaction score follow.
Lab note: record just the number, no unit beside it.

[
  {
    "residue-string": "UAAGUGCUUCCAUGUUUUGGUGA",
    "3' UTR reporter interaction score": -1.44
  },
  {
    "residue-string": "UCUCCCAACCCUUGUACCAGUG",
    "3' UTR reporter interaction score": 0.779
  },
  {
    "residue-string": "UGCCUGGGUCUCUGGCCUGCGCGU",
    "3' UTR reporter interaction score": -0.227
  }
]

Switching to the query record.
-- ask Record request: 3' UTR reporter interaction score value, item `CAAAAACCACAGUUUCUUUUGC`
-- reply -0.79

====

Measured 3' UTR reporter interaction score values are reported for all entries that follow.
- System: RB1
- protocol-summary: 3' UTR reporter interaction score (median-centred robust z-score of log2 firefly/Renilla activity); higher = less repression of the 3' UTR reporter
- assay-context: HEK293T; 48 h
A bare number is all that is needed in reply.

[
  {
    "residue-string": "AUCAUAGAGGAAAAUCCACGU",
    "3' UTR reporter interaction score": -0.168
  },
  {
    "residue-string": "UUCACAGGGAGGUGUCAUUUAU",
    "3' UTR reporter interaction score": 0.105
  },
  {
    "residue-string": "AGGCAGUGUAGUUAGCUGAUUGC",
    "3' UTR reporter interaction score": 0.138
  }
]

Now for another entry.
-- ask Could you tell me which 3' UTR reporter interaction score is on file for `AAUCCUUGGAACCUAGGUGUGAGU` ?
-- reply -0.422

====

- System: MYB
- protocol-summary: 3' UTR reporter interaction score (median-centred robust z-score of log2 firefly/Renilla activity); higher = less repression of the 3' UTR reporter
- assay-context: HEK293T; 48 h
Below is a list of entries, each paired with its recorded 3' UTR reporter interaction score value.
In your answer, state the number alone without any accompanying words.

[
  {
    "residue-string": "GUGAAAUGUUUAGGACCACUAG",
    "3' UTR reporter interaction score": -0.192
  },
  {
    "residue-string": "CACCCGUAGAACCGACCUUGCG",
    "3' UTR reporter interaction score": 0.655
  },
  {
    "residue-string": "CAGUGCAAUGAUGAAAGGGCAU",
    "3' UTR reporter interaction score": -1.75
  },
  {
    "residue-string": "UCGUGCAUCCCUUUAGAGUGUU",
    "3' UTR reporter interaction score": -1.1
  },
  {
    "residue-string": "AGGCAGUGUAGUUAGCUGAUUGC",
    "3' UTR reporter interaction score": -4.27
  }
]

The record that follows has no 3' UTR reporter interaction score shown yet.
-- ask Which 3' UTR reporter interaction score is reported with MYB for this entry: `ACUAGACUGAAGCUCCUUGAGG` ?
-- reply 0.78

The reported measurements were obtained from the supplement of paper PMC5844555.
